- protocol-notes: Plasma pharmacokinetics, single and multiple dose, noncompartmental
- Format: in vivo, human
- condition-details: human, in vivo, 120 mg, terminal half-life

compound | half-life
CCCN1CC(Oc2ccc([C@@H]3c4[nH]c5ccccc5c4C[C@@H](C)N3CC(C)(C)F)cc2)C1 [palazestrant, Palazestrant] | 192 h
